Provenance of the data: patent US20210045385A1

- Tested on: barnyardgrass (Echinochloa crus-galli)
- ASSAY NAME: Test A preemergence, visual plant response rating
- Assay type: in vivo
- ASSAY SETUP: 125 g ai/ha, preemergence; 0 to 100 scale, 0 no effect, 100 complete control
Barnyardgrass plant response rating by entry:
ENDPOINT: Barnyardgrass plant response rating

| INPUT SMILES | VALUE OBSERVED |
| --- | --- |
| Cc1nn(C)c(=O)c(C(=NOCC=CCl)c2ccc(F)c3ccccc23)c1O | 50 |
| CON=C(c1cc(Cl)ccc1Cl)c1c(O)c(C)nn(C)c1=O | 50 |
| CCO/N=C(/c1c(O)c(Cl)nn(C)c1=O)c1cccc2ccccc12 | 50 |
